Where do these numbers come from? They come from patent US8383581B2.

Please provide measured cAMP released with respect to control, 10 nM peptide, UMR-106 cells for the entries that follow.
Target: T1, rat PTH-1R (rat PTHR endogenously expressed on UMR-106 rat osteosarcoma cells) (rat, UniProt P25961 27-591)
T1 sequence (looked up): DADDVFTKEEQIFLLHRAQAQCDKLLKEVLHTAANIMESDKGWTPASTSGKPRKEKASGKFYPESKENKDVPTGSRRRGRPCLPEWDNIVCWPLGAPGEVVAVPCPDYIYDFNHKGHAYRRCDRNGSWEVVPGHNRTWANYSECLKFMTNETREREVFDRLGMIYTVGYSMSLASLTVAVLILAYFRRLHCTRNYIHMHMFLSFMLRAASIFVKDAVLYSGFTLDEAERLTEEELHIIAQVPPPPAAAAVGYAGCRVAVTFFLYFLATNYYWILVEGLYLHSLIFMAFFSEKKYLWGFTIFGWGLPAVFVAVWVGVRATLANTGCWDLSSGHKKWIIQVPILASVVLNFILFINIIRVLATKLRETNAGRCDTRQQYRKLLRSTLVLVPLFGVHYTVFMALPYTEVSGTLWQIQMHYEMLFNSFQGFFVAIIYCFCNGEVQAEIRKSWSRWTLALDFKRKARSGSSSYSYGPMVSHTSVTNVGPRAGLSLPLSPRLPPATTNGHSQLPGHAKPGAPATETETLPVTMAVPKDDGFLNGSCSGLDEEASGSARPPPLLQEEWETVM
Assay: cell-based or functional assay
*1 amine or outer side, *2 acyl side, *3 side chain or, on linkers, in order; H or OH if unused. Where no end group is shown, it is not given here. [ ]: non-standard residue; d: D form. αMe‑APPA = 2-amino-2-methyl-5-phenylpentanoic acid, C[C@@](CCCc1ccccc1)(N[*:1])C(=O)[*:2]; Bip(2'-Et-4'-OMe) = CCc1cc(OC)ccc1-c1ccc(C[C@H](N)C(=O)O)cc1; αMePhe(2,6-F2) = C[C@](N)(Cc1c(F)cccc1F)C(=O)O; αMePhe(2-F) = C[C@](N)(Cc1ccccc1F)C(=O)O; αMeNle = CCCC[C@](C)(N[*:1])C(=O)[*:2]; hhPhe = N[C@@H](CCCc1ccccc1)C(=O)O; hArg = N=C(N)NCCCC[C@H](N)C(=O)O; αMeF = C[C@](N)(Cc1ccccc1)C(=O)O; Cit = NC(=O)NCCC[C@H](N)C(=O)O; Nle = CCCC[C@H](N)C(=O)O; Ac5c = NC1(C(=O)O)CCCC1; Ac3c = NC1(C(=O)O)CC1; Aib = CC(C)(N)C(=O)O

(Q) What cAMP released with respect to control, 10 nM peptide, UMR-106 cells value was documented for this binder, V[Ac3c]V[Aib]EIQL[αMeNle]HQ[hArg]A[hArg][αMePhe(2-F)][αMe‑APPA] [Seq. ID. 935] ?
(A) 102 percent of control

(Q) Next record, please: [Ac3c]V[Aib]EIQ[αMePhe(2,6-F2)][Nle]HQ[hArg][Aib]K[αMeF] [Seq. ID. 41]
(A) 79 percent of control

(Q) Note, next up: [Ac5c]V[Aib]EIQL[Nle]HQ[hArg]A[Cit][Bip(2'-Et-4'-OMe)][hhPhe] [Seq. ID. 733]
(A) 98 percent of control
